System: SN12C
PROTOCOL_DESCRIPTION: NCI tumour cell line growth inhibition, 48 h
The source made the active and inactive calls. Rule as the data show it: active = GI50 up to about 1.1 µM and inactive = higher.
API: response.call in active, inactive

Worked cases, answers included:
| COMPOUND | ASSAY_TARGET | DISCRETE_LABEL |
| --- | --- | --- |
| OC(C/C(=N\N1CCCCC1)c1cccs1)(C(F)(F)F)C(F)(F)F | SN12C | inactive |
| OCCSCc1cc(Cl)cc(Cl)c1O | SN12C | inactive |
| O=c1/c(=C/c2ccco2)sc2nc3ccccc3n12 | SN12C | inactive |
| CCN(CC)CCNc1ccc2ncn3c4c(OC)ccc(OC)c4c(=O)c1c23 | SN12C | inactive |
| CCOC(=O)C(C(=O)OCC)C(=O)c1ccccc1C(=O)c1ccccc1 | SN12C | inactive |
| CN1C(=O)[C@@]2(C=CC3(CC2)OCCO3)c2ccccc21 | SN12C | inactive |

// return assay outcome for O=C(/C=C/c1cc2ccccc2o1)N1CCN(c2ccccn2)CC1
inactive

Each compound tested received a call. Report the one for O=C(Cc1ccccc1)NCCCN(CCCCN(CCCNC(=O)Cc1ccccc1)C(=O)OCc1ccccc1)C(=O)OCc1ccccc1 .
inactive

What call does the record list for COc1ccc(-c2cc(C(=O)Nc3ccc(C)c(C)c3)nc(NC#N)n2)cc1 ?
inactive

Which outcome did this test record for the compound COc1ccc2c(c1)c(=O)c1c(NCCN(C)C)ccc3nnn2c31 ?
inactive

State the result this test recorded for COC(=O)C1(C)C=CC(=O)C2(C)C1C(O)C1OC3CC(c4ccoc4)C(C)=C3C1(C)C2CC(=O)O (stereo unspecified) .
inactive

Recorded test outcome, item COC(=O)C#Cc1cccc(OC)c1OC
inactive

For CC1(C)CCC(=O)c2c(O)ccc(O)c21 , what call appears in the results of this test?
inactive

Tell me the recorded outcome of this test for O=C(O)/C=C\C(=O)Nc1ccc(S(=O)(=O)c2ccc(NC(=O)/C=C\C(=O)O)cc2)cc1 .
inactive

What classification did OCCOCCO[P+]1(OCCOCCO)n2c3ccc2C(c2ccccc2)=C2C=CC(=N2)C(c2ccccc2)=c2ccc(n21)=C(c1ccccc1)C1=NC(=C3c2ccccc2)C=C1 end up with in this test?
active

For this compound, state the assay outcome: O=[N+]([O-])c1ccc(S(=O)(=O)Cc2ccccc2)c([N+](=O)[O-])c1
inactive

###

System: PC-3
PROTOCOL_DESCRIPTION: NCI tumour cell line growth inhibition, 48 h
Activity calls are given as the source filed them. Cut-off read from the data, not from the text of the source: active = GI50 up to about 1.1 µM and inactive = higher.
Response enum: active, inactive

Some solved cases for reference:
| MOLECULE_SMILES | DISCRETE_LABEL |
| --- | --- |
| CC(C)NC(=O)OCc1c(COC(=O)NC(C)C)c(-c2ccc[n+](COC(=O)C3CC3)c2)n2c1CCC2 | inactive |
| CCOC(=O)/C(C(=O)c1ccc([N+](=O)[O-])cc1)=C(\NS(=O)(=O)c1cc(C)c(Cl)cc1[S-])[n+]1ccc(N(C)C)cc1 | inactive |
| CC1(C)O[C@@H]2[C@@H](COC(=O)c3ccccc3)C[C@@H](C#N)[C@@H]2O1 | inactive |

Hello, I am checking results. What call was entered for NNC(=O)CC(=O)Nc1ccc(Cl)cc1 ?
inactive

Called result for O=C(NC(=O)c1ccccc1[N+](=O)[O-])Nc1ccc(Oc2ncc(Cl)cn2)c([N+](=O)[O-])c1
active

Lab log entry: COc1cccc(N2CCc3c(C)c(C#N)c4nc5ccccc5n4c32)c1 — outcome as called in the assay?
inactive

Any idea what this test logged for CCN(CC)C(=O)N1CN(c2ccccc2)C2(CCN(CCCSc3ccc(F)cc3)CC2)C1=O ?
inactive

Please state the recorded outcome for this molecule: Cc1c2c(n(Cc3ccccn3)c1C)NN=C(C#N)S2(=O)=O
inactive

// param item: O=c1[nH]nc(-c2ccccc2)n1/N=C/c1c[nH]c2ccccc12 ; yields the recorded call
inactive

Any idea what this test logged for CCN(CC)/[N+]([O-])=N/OCOC(C)=O ?
inactive

###

Tested on: NCI/ADR-RES
PROTOCOL_DESCRIPTION: NCI tumour cell line growth inhibition, 48 h
Calls of active or inactive are those of the source. No stated cut-off is given here; in the data, active = GI50 up to about 1.1 µM and inactive = higher.
Just give me one of these, please: active, inactive

Field: example entries. Status: answers known.
| COMPOUND | DISCRETE_LABEL |
| --- | --- |
| CN(Cc1cc(Cl)c(Cl)cc1NC(=O)CN)[C@H]1CCCC[C@@H]1N1CCCC1 | inactive |
| Cc1cc(-c2nc3ccccc3s2)ccc1NS(=O)(=O)O | inactive |
| O=C1Nc2ccc(Br)cc2/C1=N/NC(=S)Nc1ccc([N+](=O)[O-])cc1 | inactive |
| O=C(O)C1C(C(=O)O)C2C(=O)C=CC1N2Cc1ccccc1 (stereo unspecified) | inactive |
| Nc1nc(Cl)cc(NCC2(O)CCC2)n1 | inactive |

So what was the verdict on N#C/C(=C\NC(=S)c1ccncc1)c1nc2ccccc2s1 in this test?
inactive

Hi, sorry to bother you, what did the test record for COC(C/C(=C/CO[Si](C(C)C)(C(C)C)C(C)C)C(=O)N(COCC[Si](C)(C)C)c1ccccc1I)OC ?
inactive

Please indicate how the test categorized CC(=O)OC1OC(c2ccoc2)C[C@@]12C1CCC3O[C@]3(C)[C@]1(C)[C@H](OC(C)=O)[C@H](OC(C)=O)[C@H]2C (stereo partly specified) .
inactive

Identify the outcome logged in this assay for the compound shown: CCOc1ccc(/C=C2/C(=O)N/C(=N\C(C)=O)N2C)cc1
inactive

Kindly provide the recorded test outcome for the following compound: CO[C@@](c1ccccc1)(c1nc(C#N)c(N)o1)C(F)(F)F
inactive

Status in this test for CC1(C)O[C@@H]2[C@@H](COC(=O)c3ccccc3)C[C@@H](C#N)[C@@H]2O1 ?
inactive

Recorded call for CC[C@@]1(OC(=O)C(N)CCCCN)C(=O)OCc2c1cc1n(c2=O)Cc2cc3ccccc3nc2-1 (stereo partly specified) ?
active

###

System: SN12C
PROTOCOL_DESCRIPTION: NCI tumour cell line growth inhibition, 48 h
Activity calls are given as the source filed them. No stated cut-off is given here; in the data, active = GI50 up to about 1.1 µM and inactive = higher. Square brackets hold non-standard residues; d marks the D form. Peptide text beside a SMILES is read from it. * marks the point of attachment. ξ: configuration not given here. Propanoyl(3-(4-MeO-Ph)) = COc1ccc(CCC(=O)*)cc1; Thr(3ξ) = CC(O)[C@H](N)C(=O)O; dNMeL = CN[C@H](CC(C)C)C(=O)O; ξLac = CC(O)C(=O)O
ASSAY_ENDPOINT: GI50

| COMPOUND | ASSAY_TARGET | MEAS_VALUE |
| --- | --- | --- |
| CC(C)C(C)C(C)(C)P(C)(C)=O (stereo unspecified) | SN12C | > 100 µM (inactive) |

Query (compound): CC(=O)O[C@H]1C(=O)[C@@]2(C)[C@H]([C@H](OC(=O)c3ccccc3)[C@]3(O)C[C@H](OC(=O)[C@H](O)[C@@H](NC(=O)C(C)(O)C(C)O)c4ccccc4)C(C)=C1C3(C)C)[C@]1(OC(C)=O)CO[C@@H]1C[C@@H]2O (stereo partly specified) ; field requested: GI50
0.485 µM (active)

Give its GI50 value. Item: O=c1c(Cc2c(O)oc3cc(O)ccc3c2=O)c(O)oc2cc(O)ccc12
> 100 µM (inactive)

I have this compound here, COC(=O)[C@@H](NC(=O)[C@@H](CC(C)C)N(C)C(=O)[C@@H]1CCCN1C(=O)C(C)O)C(C)OC(=O)CCc1ccc(OC)cc1 (stereo partly specified) (H-[ξLac]P[dNMeL][Thr(3ξ)](Propanoyl(3-(4-MeO-Ph)))-OMe) , and I need its recorded GI50.
> 100 µM (inactive)

Field request: GI50 | item: C=C1C(=O)OC2C=C(CCC(C)=O)C(C)C(OC(C)=O)CC12 (stereo unspecified)
15.7 µM (inactive)

Recorded GI50 of COc1ccccc1NC(=O)CC(=O)N1N=C(C)C(/N=N/c2ccc(C(=O)O)cc2)C1=O (stereo unspecified) , please.
> 100 µM (inactive)

Need GI50 of Oc1nc2nc3ccccc3nc2nc1O , thanks.
> 100 µM (inactive)

Fill in: GI50 of COc1cc2c(c(OC)c1OC)-c1ccc(=O)c(O)cc1[C@@H](NC(C)=O)CC2 [COLCHICEINE] is ___
16.8 µM (inactive)

State the recorded GI50 for this entry: CCN(CC)C(=O)N1CN(c2ccccc2)C2(CCN(CCCSc3ccc(F)cc3)CC2)C1=O
9.18 µM (inactive)

Quick check: GI50 of COc1ccc([C@H]2[C@H]3COC(=O)[C@H]3C(C#N)=C3Sc4ccccc4N32)cc1 ?
15.1 µM (inactive)

Could you share which GI50 value was measured for N/C(=C\c1ccc(/C=C(\NC(=O)c2ccccc2)c2nc3c([nH]2)C(=O)c2ccccc2C3=O)cc1)c1nc2c([nH]1)C(=O)c1ccccc1C2=O ?
14.3 µM (inactive)
